Target: human SLC6A19 and TMEM27 (Homo sapiens)
Construct: expressed in transfected cells
Sequence (Q695T7 whole entry): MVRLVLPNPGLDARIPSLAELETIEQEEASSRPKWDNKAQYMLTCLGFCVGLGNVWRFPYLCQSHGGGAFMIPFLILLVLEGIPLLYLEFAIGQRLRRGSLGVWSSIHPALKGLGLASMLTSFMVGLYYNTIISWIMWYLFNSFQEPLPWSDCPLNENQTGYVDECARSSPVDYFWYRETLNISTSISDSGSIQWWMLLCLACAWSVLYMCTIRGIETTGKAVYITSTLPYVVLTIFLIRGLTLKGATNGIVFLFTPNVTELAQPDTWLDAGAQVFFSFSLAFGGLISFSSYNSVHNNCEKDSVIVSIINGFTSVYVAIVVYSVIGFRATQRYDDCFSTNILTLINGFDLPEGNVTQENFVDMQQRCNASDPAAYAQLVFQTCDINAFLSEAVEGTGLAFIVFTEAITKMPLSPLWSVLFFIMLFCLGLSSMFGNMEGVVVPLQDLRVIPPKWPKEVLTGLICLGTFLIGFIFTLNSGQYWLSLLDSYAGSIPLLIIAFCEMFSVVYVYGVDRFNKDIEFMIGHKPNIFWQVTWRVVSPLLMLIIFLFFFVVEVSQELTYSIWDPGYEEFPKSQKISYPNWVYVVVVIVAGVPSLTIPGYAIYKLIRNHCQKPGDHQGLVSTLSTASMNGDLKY
Sequence (Q9HBJ8 15-222 partner): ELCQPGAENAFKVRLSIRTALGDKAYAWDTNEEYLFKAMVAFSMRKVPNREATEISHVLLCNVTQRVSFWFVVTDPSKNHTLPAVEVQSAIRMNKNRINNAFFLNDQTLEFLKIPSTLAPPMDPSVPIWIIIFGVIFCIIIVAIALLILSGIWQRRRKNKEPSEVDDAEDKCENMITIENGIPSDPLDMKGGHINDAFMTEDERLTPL
Experiment: Radiolabelled (3H) leucine uptake in CHO cells with doxycycline-inducible expression of human SLC6A19 and TMEM27 (Example B-1)
Format: cell-based
Details: CHO cells with doxycycline-inducible expression of human SLC6A19 and TMEM27, read-out: SLC6A19_Radioligand Uptake Assay IC50
measurement_kind: log10 of IC50 (log10 of the value in nM)
Log10 applied to IC50; unit prior to transform: nM.

// query # value lookup — system human SLC6A19 and TMEM27 (Homo sapiens), readout log10 of IC50, item "O=C(CC(F)F)NCc1cc2cc(Cl)c(OCc3cscn3)cc2[nH]1"
// result 1.94

// query # value lookup — system human SLC6A19 and TMEM27 (Homo sapiens), readout log10 of IC50, item "Cc1cc(COc2cc3[nH]c(CNC(=O)C[C@@H]4CCOC4)cc3cc2Cl)on1"
// result 3.31

// query # value lookup — system human SLC6A19 and TMEM27 (Homo sapiens), readout log10 of IC50, item "CCOC(=O)NCc1cc2cc(Cl)c(OCc3cscn3)cc2[nH]1"
// result 2.26

// query # value lookup — system human SLC6A19 and TMEM27 (Homo sapiens), readout log10 of IC50, item "Cc1cc(COc2cc3[nH]c(CNC(=O)C4(C#N)COC4)cc3cc2Cl)on1"
// result 2.54

// query # value lookup — system human SLC6A19 and TMEM27 (Homo sapiens), readout log10 of IC50, item "CCC(=O)NCc1cc2cc(F)c(OCc3coc(C)n3)cc2[nH]1"
// result 2.74

// query # value lookup — system human SLC6A19 and TMEM27 (Homo sapiens), readout log10 of IC50, item "Cc1cc(COc2cc3[nH]c(CNC(=O)C4(C)CC4)cc3cc2Cl)ns1"
// result 2.63

// query # value lookup — system human SLC6A19 and TMEM27 (Homo sapiens), readout log10 of IC50, item "Cc1csc(COc2cc3[nH]c(CNC(=O)C4(C)CC4)cc3cc2Cl)n1"
// result 2.61

// query # value lookup — system human SLC6A19 and TMEM27 (Homo sapiens), readout log10 of IC50, item "[2H]C([2H])([2H])c1cc(COc2cc3[nH]c(CNC(=O)C4(C)CC4)cc3cc2Cl)no1"
// result 2.13

// query # value lookup — system human SLC6A19 and TMEM27 (Homo sapiens), readout log10 of IC50, item "O=C(NCc1cc2cc(OC(F)(F)F)c(OCc3cocn3)cc2[nH]1)N1CCCC1"
// result 2.60

// query # value lookup — system human SLC6A19 and TMEM27 (Homo sapiens), readout log10 of IC50, item "C[C@H]1CCN(C(=O)NCc2cc3cc(F)c(OCc4cscn4)cc3[nH]2)C1"
// result 2.53

// query # value lookup — system human SLC6A19 and TMEM27 (Homo sapiens), readout log10 of IC50, item "CC(C)C(=O)NCc1cc2cc(F)c(OCc3cocn3)cc2[nH]1"
// result 2.49

// query # value lookup — system human SLC6A19 and TMEM27 (Homo sapiens), readout log10 of IC50, item "CC1(C(=O)NCc2cc3cc(OC(F)(F)F)c(CCc4ccon4)cc3[nH]2)CC1"
// result 2.59

// query # value lookup — system human SLC6A19 and TMEM27 (Homo sapiens), readout log10 of IC50, item "CC1(C(=O)NCc2cc3cc(Cl)c(OCc4cscn4)cc3[nH]2)CC1"
// result 2.16

// query # value lookup — system human SLC6A19 and TMEM27 (Homo sapiens), readout log10 of IC50, item "O=C(NCc1cc2cc(Cl)c(OCc3cscn3)cc2[nH]1)N1CCCC1"
// result 2.17

// query # value lookup — system human SLC6A19 and TMEM27 (Homo sapiens), readout log10 of IC50, item "CCC(=O)NCc1cc2cc(F)c(OCc3ccon3)cc2[nH]1"
// result 2.26

// query # value lookup — system human SLC6A19 and TMEM27 (Homo sapiens), readout log10 of IC50, item CC(=O)NCc1cc2cc(Cl)c(OCC3COCCO3)cc2[nH]1 (stereo not drawn)
// result 3.56

This collection of values is drawn from patent US20240199546A1.
